target or system: T1, human MSLN-R1-his protein (human, UniProt Q13421 296-390)
T1 construct: Made in HEK293E cells, purified on nickel column; also called hMSLN-R1-his; human MSLN-R1 protein; not shown: His tag
T1 chain: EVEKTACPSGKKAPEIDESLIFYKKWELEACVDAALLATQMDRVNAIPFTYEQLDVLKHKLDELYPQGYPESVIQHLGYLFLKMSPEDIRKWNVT
procedure summary: ELISA, coated antigen, antibody 0.002 nM
assay endpoint: OD450
Would you mind answering with just the numeric figure?

S009-F7.53.2 chimeric antibody (antibody, human IgG1, kappa, V domains shown, Human-murine chimeric antibody, human IgG1/kappa constant regions) VH: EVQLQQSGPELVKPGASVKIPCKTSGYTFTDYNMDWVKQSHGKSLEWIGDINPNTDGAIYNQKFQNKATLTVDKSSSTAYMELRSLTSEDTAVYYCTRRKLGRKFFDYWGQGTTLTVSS VL: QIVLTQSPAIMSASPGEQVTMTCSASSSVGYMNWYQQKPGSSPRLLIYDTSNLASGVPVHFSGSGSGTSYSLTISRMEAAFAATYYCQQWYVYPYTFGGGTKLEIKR    0.05
S009-F7.11.11 chimeric antibody (antibody, human IgG1, kappa, V domains shown, Human-murine chimeric antibody, human IgG1/kappa constant regions) VH: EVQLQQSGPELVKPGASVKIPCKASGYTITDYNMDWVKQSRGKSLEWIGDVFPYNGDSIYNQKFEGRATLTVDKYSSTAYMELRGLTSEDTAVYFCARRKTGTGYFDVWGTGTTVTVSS VL: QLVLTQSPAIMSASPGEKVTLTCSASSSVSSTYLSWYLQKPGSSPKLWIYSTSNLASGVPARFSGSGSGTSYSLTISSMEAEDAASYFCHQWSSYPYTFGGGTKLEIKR    0.05
S009-F7.6.17 chimeric antibody (antibody, human IgG1, kappa, V domains shown, Human-murine chimeric antibody, human IgG1/kappa constant regions) VH: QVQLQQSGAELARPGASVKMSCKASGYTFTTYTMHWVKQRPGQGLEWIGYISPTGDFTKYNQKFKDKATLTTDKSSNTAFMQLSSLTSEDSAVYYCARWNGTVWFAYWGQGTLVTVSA VL: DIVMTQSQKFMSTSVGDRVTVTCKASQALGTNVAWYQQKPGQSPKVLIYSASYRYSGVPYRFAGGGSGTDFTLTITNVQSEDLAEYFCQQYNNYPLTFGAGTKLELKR    0.05
S009-F7.2.3 chimeric antibody (antibody, human IgG1, kappa, V domains shown, Human-murine chimeric antibody, human IgG1/kappa constant regions) VH: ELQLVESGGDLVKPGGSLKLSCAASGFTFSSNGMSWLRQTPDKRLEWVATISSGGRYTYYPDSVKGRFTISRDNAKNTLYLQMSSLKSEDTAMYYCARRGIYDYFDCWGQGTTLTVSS VL: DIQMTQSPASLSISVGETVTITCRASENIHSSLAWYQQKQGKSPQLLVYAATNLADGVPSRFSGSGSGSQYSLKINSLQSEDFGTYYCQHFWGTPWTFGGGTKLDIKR    0.06

Task: Need OD450, item S009-F7.26.15 chimeric antibody (antibody, human IgG1, kappa, V domains shown, Human-murine chimeric antibody, human IgG1/kappa constant regions) VH: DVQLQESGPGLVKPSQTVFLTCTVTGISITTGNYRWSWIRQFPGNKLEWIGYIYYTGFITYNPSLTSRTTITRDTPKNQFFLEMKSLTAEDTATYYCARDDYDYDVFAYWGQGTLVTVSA VL: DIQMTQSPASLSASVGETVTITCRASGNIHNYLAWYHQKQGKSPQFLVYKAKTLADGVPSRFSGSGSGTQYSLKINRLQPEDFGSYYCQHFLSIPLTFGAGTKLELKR
Output: 0.05
